system: PC9; assay: area under confluence curve of compound monotherapy; compare to DMSO control AUC of the same experiment (AUC (confluence x time, arbitrary)); details: 1000 nM; DMSO control AUC in same experiment: 22064
Assignment: determine reported area under confluence curve for the given compounds.
I only need the number, thanks.

Data request: PC9 / area under confluence curve / CCc1cc2c(cc1N1CCC(N3CCOCC3)CC1)C(C)(C)c1[nH]c3cc(C#N)ccc3c1C2=O [Alectinib] : value?
Data returned: 16200

Data request: Could you do the same for C[C@@H]1COCCN1c1cc(C2([S@](C)(=N)=O)CC2)nc(-c2cc[nH]c3nccc2-3)n1 , please?
Data returned: 21700

Data request: Lookup Cc1cccc(-c2[nH]c(C(C)(C)C)nc2-c2ccc3nccnc3c2)n1
Data returned: 21700

Data request: And then C[C@@H](Oc1cc(-c2cnn(C3CCNCC3)c2)cnc1N)c1c(Cl)ccc(F)c1Cl [Crizotinib] , what is it?
Data returned: 21100

---

Give area under confluence curve for every item shown.
tested on: PC9; assay: area under confluence curve of osimertinib + compound combination regimen (DTP regrowth); compare to osimertinib-only DTP control AUC of the same experiment (AUC (confluence x time, arbitrary)); conditions: test compound dose 1000 nM; dosing schedule: upfront; osimertinib-only DTP control AUC in same experiment: 17834; DMSO control AUC in same experiment: 21594
Just the number.

Data request: PC9 / area under confluence curve / COc1cc(CCc2cc(NC(=O)c3ccc(N4CC(C)NC(C)C4)cc3)n[nH]2)cc(OC)c1 (centres undefined) + C=CC(=O)Nc1cc(Nc2nccc(-c3cn(C)c4ccccc34)n2)c(OC)cc1N(C)CCN(C)C [osimertinib] : value?
Data returned: 6660

Data request: Queued: O=C([C@@H](Cc1cccc(C(F)(F)F)c1)NS(=O)(=O)c1cc(F)c2c(c1)CCNC2)N1CCCC1 + C=CC(=O)Nc1cc(Nc2nccc(-c3cn(C)c4ccccc34)n2)c(OC)cc1N(C)CCN(C)C [osimertinib]
Data returned: 13600

Data request: Field entry: COc1nn(C)cc1Nc1nccc(-c2c[nH]c3c(NC(=O)[C@@H](C)N4CCN(C)CC4)cccc23)n1 + C=CC(=O)Nc1cc(Nc2nccc(-c3cn(C)c4ccccc34)n2)c(OC)cc1N(C)CCN(C)C [osimertinib]
Data returned: 15000

Data request: Try Cc1cc2cc(C(=O)c3cnn(-c4cnc(Oc5c(F)cccc5F)cc4C)c3N)[nH]c2cc1NS(C)(=O)=O + C=CC(=O)Nc1cc(Nc2nccc(-c3cn(C)c4ccccc34)n2)c(OC)cc1N(C)CCN(C)C [osimertinib] next.
Data returned: 9050
